- MEASUREMENT TARGET: PNA (Arachis hypogaea, UniProt P02872)
- Construct: purchased E.Y. Laboratories, San Mateo, Calif; (donated by Dr. A. Chu)
- Sequence (P02872 24-273): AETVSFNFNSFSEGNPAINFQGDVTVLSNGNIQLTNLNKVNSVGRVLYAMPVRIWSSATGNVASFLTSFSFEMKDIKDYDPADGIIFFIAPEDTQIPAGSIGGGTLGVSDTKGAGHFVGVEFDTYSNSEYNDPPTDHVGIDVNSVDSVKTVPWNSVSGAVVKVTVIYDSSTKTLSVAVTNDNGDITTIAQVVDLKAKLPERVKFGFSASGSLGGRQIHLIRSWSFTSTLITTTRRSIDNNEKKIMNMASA
- METHOD DESCRIPTION: Hapten inhibition of PNA/asialoglycophorin precipitation
- Format: binding
- EXPERIMENTAL PARAMETERS: Galactose = 1; 40 μg PNA, 6 μg asialoglycophorin
The following compounds are listed with their measured Relative Inhibition potency PNA values.
RECORDED METRIC: Relative Inhibition potency PNA

{"COMPOUND": "CO[C@H]1[C@@H](O)[C@@H](CO)O[C@@H](O[C@H]2[C@@H](O)[C@@H](CO)O[C@H](OCc3ccccc3)[C@@H]2NC(C)=O)[C@@H]1O", "MEASUREMENT TARGET": "PNA (Arachis hypogaea, UniProt P02872)", "RECORDED METRIC": "Relative Inhibition potency PNA", "VALUE OBSERVED": "< 10"}
{"COMPOUND": "CC(=O)N[C@H]1[C@H](O[C@H]2[C@@H](O)[C@@H](CO)O[C@@H](O[C@H]3[C@@H](O)[C@@H](CO)O[C@H](OCc4ccccc4)[C@@H]3NC(C)=O)[C@@H]2O)O[C@H](CO)[C@@H](O)[C@@H]1O", "MEASUREMENT TARGET": "PNA (Arachis hypogaea, UniProt P02872)", "RECORDED METRIC": "Relative Inhibition potency PNA", "VALUE OBSERVED": "< 10"}
{"COMPOUND": "CC(=O)N[C@H]1C(O)O[C@H](CO)[C@H](O)[C@@H]1O (stereo partly drawn)", "MEASUREMENT TARGET": "PNA (Arachis hypogaea, UniProt P02872)", "RECORDED METRIC": "Relative Inhibition potency PNA", "VALUE OBSERVED": "< 0.4"}

Data provenance is patent US6084072A.
